System: L6
Test: Cytotoxicity against rat L6 cells after 72 hrs by Alamar blue assay
Assay type: cell-based
Conditions: Rattus norvegicus, L6, 72 h
quantityName: pIC50
Numbers only, as −log10 of the molar value.

Worked cases, answers included:
INSERT INTO measurements (chemicalsmiles, endpointresult) VALUES
  ('CCn1c(=O)/c(=C/C=c2\nc3c(o2)=CC=CN3C)s/c1=C\c1sc2ccccc2[n+]1C', 4.57),
  ('CCn1c(=O)/c(=C2\Sc3ccccc3N2C)s/c1=C\c1cccc[n+]1CC', 3.94),
  ('CCCCN1C=CC=c2o/c(=C/C=c3\s/c(=C\c4sc5ccccc5[n+]4CC)n(CCC)c3=O)nc21', 5.68);

Consider now this further compound.
System L6. Read-out pIC50. Item `CCCN1C=CC=c2o/c(=C/C=c3\s/c(=C\c4sc5ccccc5[n+]4C)n(CC)c3=O)nc21` . Report value.
5.84

* * *

System: L6
Experiment: Cytotoxicity against rat L6 cells after 72 hrs by Alamar blue assay
Assay type: cell-based
Details: Rattus norvegicus, L6, 72 h
quantityName: IC50 (µM)
One number for each entry, in µM.

Hey, quick one: what's IC50 for each of these?
1. CCn1c(=O)/c(=C/N=c2\sc(C)cn2C)s/c1=C\c1sc2ccc(F)cc2[n+]1C
2. CCn1c(=O)/c(=C/C=C2\Sc3ccccc3N2C)s/c1=C\c1sc2ccccc2[n+]1C
3. CCn1c(=O)/c(=C/N=c2n(C)c3ccccc3n2C)s/c1=C\c1sc2ccc(F)cc2[n+]1C
4. CCn1c(=O)/c(=C/N=c2\ccccn2C)s/c1=C\c1sc2ccc(F)cc2[n+]1C
5. CCN1C(=O)/C(=C/C=C2\Sc3ccccc3N2C)S/C1=N\c1sc2ccccc2[n+]1C

10.4
7.98
80.9
31.7
156

Here are 3 compounds. What values of IC50 were reported for them?
1. CCN1C(=O)/C(=C/C=C2\Sc3ccccc3N2C)S/C1=N\c1sc2ccc(Cl)cc2[n+]1C
2. CCn1c(=O)/c(=C/N=c2\scc(C)n2C)s/c1=C\c1sc2ccc(F)cc2[n+]1C
3. CCn1c(=O)/c(=C/C=c2\nc3c(o2)=CC=CN3C)s/c1=C\c1sc2ccc(F)cc2[n+]1C

[21.2, 16.5, 28.5]

* * *

Assay: Selectivity ratio of IC50 for rat L6 cells to IC50 for Leishmania donovani MHOM/ET/67/L82
Format: ADME, cell-based
Details: L6 cells, read-out: Ratio IC50
quantityName: selectivity ratio
Give bare numbers.

Examples with answers:
INSERT INTO results (chemicalsmiles, endpointresult) VALUES
  ('CCn1c(=O)/c(=C2\Sc3ccccc3N2C)s/c1=C\c1cccc[n+]1CC', 450),
  ('CCn1c(=O)/c(=C/N=c2\scc(C)n2C)s/c1=C\c1sc2ccc(F)cc2[n+]1C', 91);

// switching to the query compound
Could you please provide reported selectivity ratio for `CCn1c(=O)/c(=C/C=C2\Sc3ccccc3N2C)s/c1=C\c1sc2ccccc2[n+]1C` ? Thanks!
75

* * *

Assay: Selectivity ratio of IC50 for rat L6 cells to IC50 for Leishmania donovani MHOM/ET/67/L82
Assay type: ADME, cell-based
Details: L6 cells, read-out: Ratio IC50
Label criterion met when selectivity ratio >= 600; otherwise criterion not met.

Field: example entries. Status: answers known.
INSERT INTO assay_data (chemicalsmiles, assignedclass) VALUES
  ('CCn1c(=O)/c(=C/N=c2n(C)c3ccccc3n2C)s/c1=C\c1sc2ccc(F)cc2[n+]1C', 'criterion met'),
  ('CCCN1C=CC=c2o/c(=C/C=c3\s/c(=C\c4sc5ccccc5[n+]4C)n(CC)c3=O)nc21', 'criterion not met'),
  ('CCN1C(=O)/C(=C/C=C2\Sc3ccccc3N2C)S/C1=N\c1sc2ccc(Cl)cc2[n+]1C', 'criterion met'),
  ('CCn1c(=O)/c(=C/C=c2\nc3c(o2)=CC=CN3C)s/c1=C\c1sc2ccccc2[n+]1C', 'criterion not met');

Then there is this compound:
Quick check: does `CCn1c(=O)/c(=C/N=c2\ccccn2C)s/c1=C\c1sc2ccc(F)cc2[n+]1C` have selectivity ratio greater than or equal to 600?
criterion not met

The values you see were collected from ChEMBL document CHEMBL1156742.
